The measurements presented in this section are drawn from paper PMC11963566.

assay: clinical; settings: human, plasma, oral, AUC0-∞,ss, geometric mean, co-administration ZSP1273 + oseltamivir; plasma, day 5; all subjects
ASSAY_METRIC: AUC(0-inf) (ng·h/mL)
Quick note: give the figure in ng·h/mL, leave out the unit.

Query: What AUC(0-inf) value was documented for this molecule, CCOC(=O)C1=C[C@@H](OC(CC)CC)[C@H](NC(C)=O)[C@@H](N)C1 ?
Result: 163

###

assay: clinical; conditions: human, in vivo, AUC0-∞,ss, geometric mean, monotherapy; subjects with AUC_%Extrap >20.0% or Rsq <0.800 excluded
ASSAY_METRIC: AUC(0-inf) (ng·h/mL)
# value in ng·h/mL; strip the unit string

Query: Given CCOC(=O)C1=C[C@@H](OC(CC)CC)[C@H](NC(C)=O)[C@@H](N)C1 , state its recorded AUC(0-inf).
Result: 175
